# Species: Rattus norvegicus
# Test Details: DrugMatrix - Regimen: Daily Repeat
# Assay type: toxicity, organism-based, Sprague-Dawley
# Design: regimen Daily Repeat, gender Male, age 6-8 weeks
# Measurement Conditions: in vivo, po, 1500 mg/kg, 72 h, tissue Plasma, route oral GAVAGE, dose level High, time 3 day, vehicle .5 % CMC
Readout Label: TOTAL BILIRUBIN (mg/dL)
The answer is to be given in mg/dL; state only the numeric part.

For `CC(C)Oc1ccc2c(=O)c(-c3ccccc3)coc2c1` , what is its reported TOTAL BILIRUBIN?
0.1

For the compound `O=c1cnn([C@@H]2O[C@H](CO)[C@@H](O)[C@H]2O)c(=O)[nH]1` , what TOTAL BILIRUBIN is on record?
0.2

What value of measured TOTAL BILIRUBIN is listed for `CC(C)=CCC/C(C)=C/CO` ?
0.13

Which TOTAL BILIRUBIN value is on record for COC(=O)Nc1nc2ccc([S+]([O-])c3ccccc3)cc2[nH]1 (stereo not given) ?
0.1

# get_value(readout='TOTAL BILIRUBIN', item= `CN(C)[C@@H]1C(O)=C(C(N)=O)C(=O)[C@@]2(O)C(O)=C3C(=O)c4c(O)ccc(Cl)c4[C@@](C)(O)[C@H]3C[C@@H]12` )
0.23

Hello, the source for this data is ChEMBL document CHEMBL3885881, in case you need it.
